Reference source for all entries: patent US20110135573A1

Target: T1, Human MMP-9 catalytic domain (BIOMOL, SE-244) (human, UniProt P14780 107-457, limits assumed)
T1 construct: domain: catalytic domain; also called Cat-huMMP-9; cat-huMMP-9
T1 sequence (P14780 107-457 limits assumed): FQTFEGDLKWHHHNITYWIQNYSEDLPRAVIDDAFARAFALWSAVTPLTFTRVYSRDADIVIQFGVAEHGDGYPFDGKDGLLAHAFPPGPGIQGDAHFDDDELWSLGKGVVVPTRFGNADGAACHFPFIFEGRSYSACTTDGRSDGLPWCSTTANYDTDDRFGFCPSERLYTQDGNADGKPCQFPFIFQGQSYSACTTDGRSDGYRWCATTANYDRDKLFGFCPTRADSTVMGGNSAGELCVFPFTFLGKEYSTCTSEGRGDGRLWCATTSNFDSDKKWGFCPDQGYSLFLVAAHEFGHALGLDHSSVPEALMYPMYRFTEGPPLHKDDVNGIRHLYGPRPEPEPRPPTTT
Assay: Ki,app, enzyme inhibition assay (fluorogenic peptide substrate), medium-scale sFab
Exercise: for every item that follows, state its recorded pKi.
One number for each entry, as −log10 of the molar value.

Below, 2 binders whose answers are already recorded.
- M0273-C10 (Fab, V domains shown, sFab; variable domains only; also called M273-C10) VH: EVQLLESGGGLVQPGGSLRLSCAASGFTFSFYPMWWVRQAPGKGLEWVSYIYPSGGATFYADSVKGRFTISRDNSKNTLYLQMNSLRAEDTAVYYCAKDRAYGDYVGWNGFDYWGQGTLVTVSS VL: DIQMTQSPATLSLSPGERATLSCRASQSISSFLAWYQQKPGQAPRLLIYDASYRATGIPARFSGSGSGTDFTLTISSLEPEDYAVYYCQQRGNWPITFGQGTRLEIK: 9.00
- M0275-D03 (Fab, V domains shown, sFab; variable domains only; also called M275-D03) VH: EVQLLESGGGLVQPGGSLRLSCAASGFTFSQYDMWWVRQAPGKGLEWVSVIYPSGTTFYADSVKGRFTISRDNSKNTLYLQMNSLRAEDTAVYYCAKDRAYGDYVGWNGFDYWGQGTLVTVSS VL: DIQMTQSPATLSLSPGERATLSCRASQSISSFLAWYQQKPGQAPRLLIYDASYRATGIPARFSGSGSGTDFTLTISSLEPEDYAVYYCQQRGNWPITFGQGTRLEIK: 9.22

Lab note: M0274-G08 (Fab, V domains shown, sFab; variable domains only; also called M274-G08) VH: EVQLLESGGGLVQPGGSLRLSCAASGFTFSVYDMWWVRQAPGKGLEWVSVIYPSGGATYYADSVKGRFTISRDNSKNTLYLQMNSLRAEDTAVYYCAKDRAYGDYVGWNGFDYWGQGTLVTVSS VL: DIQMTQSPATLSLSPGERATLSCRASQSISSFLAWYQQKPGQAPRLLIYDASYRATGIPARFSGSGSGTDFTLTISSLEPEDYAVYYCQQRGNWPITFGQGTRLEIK gave pKi of 9.30
